tested on: OVCAR-3; assay: NCI tumour cell line growth inhibition, 48 h
Calls of active or inactive are those of the source. No stated cut-off is given here; in the data, active = GI50 up to about 1.1 µM and inactive = higher.
Your reply should match one of these outcome classes. active, inactive

> print(dat)
                                   compound  label.value
1  COC(=O)C1(C(=O)OC)CC2=C(S(=O)(=O)c3ccccc3)C[C@@H](C#N)[C@H]2C1     inactive
2  CCCCN(CCCC)c1c([N+](=O)[O-])c(=O)nc2ccccn12     inactive

Which outcome was assigned to O=[N+]([O-])/C(C(Cl)=C(Cl)Cl)=C1/OCCS1 in this test?
inactive

Which outcome was assigned to CC1(C)C(CC(=O)O)CCCC1CC(=O)O (stereo not drawn) in this test?
inactive

Which outcome was assigned to CC(=O)/C=C/CCC(=O)/C=C/C(=O)OC(CCC(=O)/C=C/C(=O)O)CC(C)=O (stereo not drawn) in this test?
inactive

Which outcome was assigned to C#CCN1CCN(C(=S)N/N=C(\C)c2ccccn2)CC1 in this test?
active

Which outcome was assigned to CCOC(=O)Cn1c(=O)ccn(COCCO)c1=O in this test?
inactive

Which outcome was assigned to CSc1ccc(NC(=S)NN(C)C)cc1 in this test?
inactive

Which outcome was assigned to Nc1ncnc2c1ncn2C1OC(CO)C(O)C1NS(=O)(=O)c1ccccc1 (stereo not drawn) in this test?
inactive

Which outcome was assigned to CC(=O)c1cccc(NC2C(N)C(NC(=O)N(C)C)(C(C)O)C(C)(O)C2(O)COC(=O)c2c(C)cccc2O)c1 (stereo not drawn) in this test?
active

----------
test system: UACC-257; assay: NCI tumour cell line growth inhibition, 48 h
Active and inactive are the calls of the source. Rule as the data show it: active = GI50 up to about 1.1 µM and inactive = higher.
Recorded GI50, one value per entry.

Recorded results for 4 compounds are shown here.
> print(dat)
                                   compound               result
1  CC(C)Cc1ccc(C(C)/C=C2\CCC(CN3CCCC3)C2=O)cc1 (stereo not given)   16.7 µM (inactive)
2  COC(=O)C(=O)C(C(=O)C(=O)Nc1cc(Cl)c(Cl)cc1Cl)c1nc2ccc([N+](=O)[O-])cc2nc1O (stereo not given)  > 100 µM (inactive)
3  COc1cccc2c1[C@H](OC)[C@]13O[C@@]1(C2=O)[C@H](O)[C@H](C)[C@@](O)(C(=O)[C@@H]1O[C@H]1C)[C@@H]3O    0.225 µM (active)
4       COc1ccc(C(=O)O)c(Cc2ccc3ccccc3c2)c1  > 100 µM (inactive)

Now consider the entry below.
If you can, please state the reported GI50 value of O=C(O)CCC(=O)OCN1C(=O)C2C3C=CC(C2C1=O)C1C2C(=O)N(COC(=O)CCC(=O)O)C(=O)C2C31 (stereo not given) .
> 100 µM (inactive)

----------
test system: M14; assay: NCI tumour cell line growth inhibition, 48 h
Active and inactive are the calls of the source. No stated cut-off is given here; in the data, active = GI50 up to about 1.1 µM and inactive = higher.
Recorded GI50, one value per entry.

Recorded results for 3 compounds are shown here.
> print(dat)
                                   compound  subject.of.test               result
1  Cc1cccc(Cl)c1NCC(O)CN1CCN(C)CC1 (stereo not given)              M14  > 100 µM (inactive)
2        Cc1ccc(S(=O)(=O)OI(O)CC(F)(F)F)cc1              M14  > 100 µM (inactive)
3  N=C(N)NS(=O)(=O)c1ccc(NCCc2c3ccccc3nc3ccccc23)cc1              M14  > 100 µM (inactive)

If you can, please state the reported GI50 value of N#Cc1c(-c2ccc(Cl)cc2)c(C#N)c(=O)n(NS(=O)(=O)c2ccccc2)c1-c1ccccc1 .
> 25 µM (inactive)

If you can, please state the reported GI50 value of O=c1c2cc(Br)ccc2nc(-c2ccccc2)n1NCC1(O)OCC(O)C(O)C1O (stereo not given) .
> 100 µM (inactive)
